Data origin, for the record: patent US20080181874A1

- Test system: viable tumor cells from the right chest wall lesion (mammary carcinoma cells)
- TEST_SUMMARY: In vitro drug response of fresh tumor cells (DISC, MTT and redox assays)
- Type: cell-based, human
- CONDITION_SUMMARY: summary of the table
TEST_READOUT: activity in vitro (in words)

Name the reported activity in vitro (in words) value associated with the compound CC(=O)O[C@H]1C(=O)[C@@]2(C)[C@H]([C@H](OC(=O)c3ccccc3)[C@]3(O)C[C@H](OC(=O)[C@H](O)[C@@H](NC(=O)c4ccccc4)c4ccccc4)C(C)=C1C3(C)C)[C@]1(OC(C)=O)CO[C@@H]1C[C@@H]2O
above-average activity

Name the reported activity in vitro (in words) value associated with the compound O=P1(N(CCCl)CCCl)NCCCO1 (stereo not shown) [Cyclophosphamide]
above-average activity

Name the reported activity in vitro (in words) value associated with the compound COc1cc([C@@H]2c3cc4c(cc3[C@@H](O[C@@H]3O[C@@H]5CO[C@@H](C)O[C@H]5[C@H](O)[C@H]3O)[C@H]3COC(=O)[C@H]23)OCO4)cc(OC)c1O [Etoposide]
above-average activity
